Where these numbers come from: the supplement of paper PMC8882468

Tested on: HCI-016 (organoid from a triple-negative breast cancer xenograft)
method.description: CTG-3D luminescence at 96 h relative to day-0 seeding control (ratio to day 0); higher = more growth / less cytotoxicity; PDxO 3D drug screen (set 2), 96 h, CTG-3D normalised to day-0 seeding control.
cond: 0.00025 µM; days in culture: 341
measured.parameter: CTG-3D luminescence at 96 h
Form: value (number only, do not type unit).

Consider the reported CTG-3D luminescence at 96 h for these compounds:
input: Look at this compound and give its reported CTG-3D luminescence at 96 h. "CO[C@H]1C[C@@H]2CC[C@@H](C)[C@@](O)(O2)C(=O)C(=O)N2CCCC[C@H]2C(=O)O[C@H]([C@H](C)C[C@@H]2CC[C@@H](OCCO)[C@H](OC)C2)CC(=O)[C@H](C)/C=C(\C)[C@@H](O)[C@@H](OC)C(=O)[C@H](C)C[C@H](C)/C=C/C=C/C=C/1C"
output: 1.39

input: Recorded CTG-3D luminescence at 96 h for "O=C(c1cc(Cc2n[nH]c(=O)c3ccccc23)ccc1F)N1CCN(C(=O)C2CC2)CC1" , please?
output: 1.78

input: Recorded CTG-3D luminescence at 96 h of "CC(=O)c1c(C)c2cnc(Nc3ccc(N4CCNCC4)cn3)nc2n(C2CCCC2)c1=O" , please.
output: 1.75

input: Param item = "Nc1cc(C(F)(F)F)c(-c2cc(N3CCOCC3)nc(N3CCOCC3)n2)cn1" ; retrieve measured CTG-3D luminescence at 96 h.
output: 1.78

input: What value of measured CTG-3D luminescence at 96 h is listed for "CO[C@H]1C[C@@H]2CC[C@@H](C)[C@@](O)(O2)C(=O)C(=O)N2CCCC[C@H]2C(=O)O[C@H]([C@H](C)C[C@@H]2CC[C@@H](O)[C@H](OC)C2)CC(=O)[C@H](C)/C=C(\C)[C@@H](O)[C@@H](OC)C(=O)[C@H](C)C[C@H](C)/C=C/C=C/C=C/1C" ?
output: 1.24

input: What value of measured CTG-3D luminescence at 96 h is listed for "CC(=O)O[C@@]12CO[C@@H]1C[C@H](O)[C@@]1(C)C(=O)[C@H](O)C3=C(C)[C@@H](OC(=O)[C@H](O)[C@@H](NC(=O)OC(C)(C)C)c4ccccc4)C[C@@](O)([C@@H](OC(=O)c4ccccc4)[C@H]21)C3(C)C" ?
output: 1.18

// next entry
input: Any idea what its CTG-3D luminescence at 96 h is? The compound is "CS(=O)(=O)CCNCc1ccc(-c2ccc3ncnc(Nc4ccc(OCc5cccc(F)c5)c(Cl)c4)c3c2)o1"
output: 1.62

====

Test system: HCI-024 (organoid from a breast cancer xenograft)
method.description: CTG-3D luminescence at 96 h relative to day-0 seeding control (ratio to day 0); higher = more growth / less cytotoxicity; PDxO 3D drug screen, 96 h, CTG-3D normalised to day-0 seeding control.
cond: 10 µM; days in culture: 163
Entries annotated with measured CTG-3D luminescence at 96 h
Hey, just send me the number, nothing else.

input: # lookup: CTG-3D luminescence at 96 h of "CCN(c1cc(C#CCN2CCOCC2)cc(C(=O)NCc2c(C)cc(C)[nH]c2=O)c1C)[C@H]1CC[C@H](N(C)CCOC)CC1"
output: 2.35

input: Entry "O=C(/C=C/c1cccnc1)NCCCCC1CCN(C(=O)c2ccccc2)CC1" : reported CTG-3D luminescence at 96 h = ?
output: 0.166

input: Which measured CTG-3D luminescence at 96 h value corresponds to "COc1cccc2c1C(=O)c1c(O)c3c(c(O)c1C2=O)C[C@@](O)(C(=O)CO)C[C@@H]3O[C@H]1C[C@H](N)[C@H](O)[C@H](C)O1" ?
output: 0.176

input: I would be grateful if you could share the reported CTG-3D luminescence at 96 h for "CC[C@H](NC(=O)[C@H](C)NC)C(=O)N1C[C@@H](O)C[C@H]1Cc1c(-c2[nH]c3cc(F)ccc3c2C[C@@H]2C[C@H](O)CN2C(=O)[C@H](CC)NC(=O)[C@H](C)NC)[nH]c2cc(F)ccc12" .
output: 0.23

input: Fill in the blank: the reported CTG-3D luminescence at 96 h of "Cc1cc(Nc2ncnc3ccc(NC4=NC(C)(C)CO4)cc23)ccc1Oc1ccn2ncnc2c1" is ____.
output: 1.88

input: Dear colleague, I am looking for the recorded CTG-3D luminescence at 96 h of the following compound: "C[C@@H]1COCCN1c1cc(C2([S@](C)(=N)=O)CC2)nc(-c2cc[nH]c3nccc2-3)n1"
output: 0.897

input: Give the measured CTG-3D luminescence at 96 h of "CC1(C)CCC(c2ccc(Cl)cc2)=C(CN2CCN(c3ccc(C(=O)NS(=O)(=O)c4ccc(N[C@H](CCN5CCOCC5)CSc5ccccc5)c(S(=O)(=O)C(F)(F)F)c4)cc3)CC2)C1" .
output: 1.74

input: Which value of CTG-3D luminescence at 96 h has been reported for "CS(=O)(=O)c1ccc(C(=O)Nc2ccc(Cl)c(-c3ccccn3)c2)c(Cl)c1" in the records?
output: 2.36

input: Which CTG-3D luminescence at 96 h reading was recorded for the compound "C=CCn1c(=O)c2cnc(Nc3ccc(N4CCN(C)CC4)cc3)nc2n1-c1cccc(C(C)(C)O)n1" ?
output: 0.466

input: Fill in the blank: the reported CTG-3D luminescence at 96 h of "CNC(=O)c1cccc(-c2ccc3c(N4CCOC[C@@H]4C)nc(N4CCOC[C@@H]4C)nc3n2)c1" is ____.
output: 0.949

Attention now turns to another entry.
input: Looking for the measured CTG-3D luminescence at 96 h of "NC(=O)c1cccc2cn(-c3ccc([C@@H]4CCCNC4)cc3)nc12" , can you help?
output: 1.17

====

Test system: HCI-001 (organoid from a triple-negative breast cancer xenograft)
method.description: CTG-3D luminescence at 96 h relative to day-0 seeding control (ratio to day 0); higher = more growth / less cytotoxicity; PDxO 3D drug screen, 96 h, CTG-3D normalised to day-0 seeding control.
cond: 12.5 pM; days in culture: 260
CTG-3D luminescence at 96 h values for the compounds below.

Below, each entry is followed by its recorded CTG-3D luminescence at 96 h result.
input: Entry under review: "COc1cccc2c1C(=O)c1c(O)c3c(c(O)c1C2=O)C[C@@](O)(C(=O)CO)C[C@@H]3O[C@H]1C[C@H](N)[C@H](O)[C@H](C)O1" . Reported CTG-3D luminescence at 96 h?
output: 2.69

input: Reported CTG-3D luminescence at 96 h for "C/C=C1\NC(=O)[C@H]2CSSCC/C=C/[C@H](CC(=O)N[C@H](C(C)C)C(=O)N2)OC(=O)[C@H](C(C)C)NC1=O" : what is it?
output: 2.41

***
input: Report CTG-3D luminescence at 96 h for "CC[C@H](NC(=O)[C@H](C)NC)C(=O)N1C[C@@H](O)C[C@H]1Cc1c(-c2[nH]c3cc(F)ccc3c2C[C@@H]2C[C@H](O)CN2C(=O)[C@H](CC)NC(=O)[C@H](C)NC)[nH]c2cc(F)ccc12" please.
output: 2.4

====

Test system: HCI-002 (organoid from a triple-negative breast cancer xenograft)
method.description: CTG-3D luminescence at 96 h relative to day-0 seeding control (ratio to day 0); higher = more growth / less cytotoxicity; PDxO 3D drug screen, 96 h, CTG-3D normalised to day-0 seeding control.
cond: 0.1 µM; days in culture: 82
measured.parameter: CTG-3D luminescence at 96 h
Answer with the value's number alone.

input: Please provide the recorded CTG-3D luminescence at 96 h for "CC(C)n1nc(-c2ccc3oc(N)nc3c2)c2c(N)ncnc21" , tested on HCI-002.
output: 0.983

New cases:
input: What reported CTG-3D luminescence at 96 h corresponds to "CCc1c2c(nc3ccc(O)cc13)-c1cc3c(c(=O)n1C2)COC(=O)[C@]3(O)CC" on HCI-002?
output: 0.606

input: GET /values?readout=CTG-3D luminescence at 96 h&system=HCI-002&item= "C[C@@H]1COCCN1c1cc(C2([S@](C)(=N)=O)CC2)nc(-c2cc[nH]c3nccc2-3)n1"
output: 2.4

input: What CTG-3D luminescence at 96 h appears in the records for this compound with HCI-002? "C=CCn1c(=O)c2cnc(Nc3ccc(N4CCN(C)CC4)cc3)nc2n1-c1cccc(C(C)(C)O)n1"
output: 2.52

input: Please provide the recorded CTG-3D luminescence at 96 h for "Nc1ccn([C@@H]2O[C@H](CO)[C@@H](O)C2(F)F)c(=O)n1" , tested on HCI-002.
output: 0.461

input: Param readout= CTG-3D luminescence at 96 h; system= HCI-002; entry= "CCN(c1cc(C#CCN2CCOCC2)cc(C(=O)NCc2c(C)cc(C)[nH]c2=O)c1C)[C@H]1CC[C@H](N(C)CCOC)CC1" ; returns value.
output: 3.77

input: Query CTG-3D luminescence at 96 h on HCI-002 for "C[C@H](NC(=O)CCC(F)(F)F)C(=O)N[C@@H]1C(=O)N(CCO)c2ncccc2-c2ccccc21"
output: 2.78

input: Tell me reported CTG-3D luminescence at 96 h for "Cc1cc(Nc2ncnc3ccc(NC4=NC(C)(C)CO4)cc23)ccc1Oc1ccn2ncnc2c1" , tested with HCI-002.
output: 2.6

input: // fetch HCI-002 CTG-3D luminescence at 96 h for "NC(=O)c1cccc2cn(-c3ccc([C@@H]4CCCNC4)cc3)nc12"
output: 2.16
